tested on: HCC-2998 colon; test: NCI tumour cell line growth inhibition, 48 h
readout: TGI

Query string: Consider the molecule CC(=O)CC1(OC(=O)C2C(C=C(C)C)C2(C)C)C(=O)Nc2ccccc21 (stereo unspecified) and give its recorded TGI.
Result string: > 100 µM

Query string: Please report TGI for the following molecule: Nc1ncnc2c1ncn2C1OC(CSCc2ccc(Cl)cc2)C(O)C1O (stereo unspecified)
Result string: > 100 µM

Hey, can you go through the list below and give me TGI for every item?
1. C/C=C/[C@@H]1[C@H]2C(=O)[C@]3(Cl)[C@@H](/C=C/C)[C@@H]3C(=O)[C@@]12Cl
2. O=C(c1c2c(cc3c1CC1(Cc4cc5c(cc4C1)CCCC5)C3)CCCC2)C(Br)Br
3. COc1cc2cc3c4c(cc(OC)c(OC)c4c2cc1OC)CCN3
4. CN(C)CC1CCC(=C2CCCC2)C1=O (stereo unspecified)

Result string:
1. > 100 µM
2. 54.3 µM
3. > 100 µM
4. 32.5 µM

====

Would you kindly list TGI for each of these compounds?
test system: SK-MEL-2 melanoma; assay: NCI tumour cell line growth inhibition, 48 h

Query string: Determine its reported TGI: COc1ccc2c(c1)[n+]([O-])c(-c1c(Cl)cccc1Cl)c(N)[n+]2[O-]
Result string: > 100 µM

Query string: Name the recorded TGI of the compound listed here: COc1cc2cccc(N=Cc3ccccc3Cl)c2cc1OC
Result string: > 100 µM

Query string: Retrieve TGI measured for COc1ccc2nc3ccccc3c(NCCN(C)CCCl)c2c1 and print it.
Result string: 2.41 µM

I would be grateful if you could provide TGI for each of the following entries.
1. CCC/C=C/C=C/C(=O)OC1C(C)C2(O)C3C=C(C)C(=O)C3CC(COC(C)=O)=CC2C2C(C)(C)C12OC(=O)C(C)C (stereo unspecified)
2. C/C(=N\NC(=O)Nc1ccccc1Cl)c1ccc(O)cc1
3. O=C(Oc1cccc2cccnc12)c1cc2cc(CCl)ccc2oc1=O
4. Cc1cccc(NC(=O)/C=C/c2ccccc2)c1C
5. NS(=O)(=O)N(c1cc(C(F)(F)F)cc(C(F)(F)F)c1)C1CCN(Cc2ccc(F)cc2)CC1
6. N#CCCOc1cccc(C2(N3CCCCC3)CCCCC2)c1

Result string:
35.2 µM
> 100 µM
79.8 µM
> 100 µM
18.1 µM
> 100 µM

Give me TGI for each of these compounds, listed below.
1. CCOc1ccccc1NC(=O)CC1Sc2ccccc2NC1=O (stereo unspecified)
2. CCN1CCC(Oc2c(C#N)ncc3[nH]c4ncccc4c23)CC1

Result string:
["> 100 µM", "26.9 µM"]

====

system: UO-31 renal; experiment: NCI tumour cell line growth inhibition, 48 h
Would you mind telling me the reported TGI of each entry?

Query string: State its TGI for this compound: C/C(=N\NC(=O)Nc1ccccc1Cl)c1ccc(O)cc1
Result string: > 100 µM

Query string: State its TGI for this compound: c1ccc(CNCCN2CCNCC2)nc1
Result string: > 100 µM

Query string: Item Nc1cc2c([nH]c[n+]2CC#CCCl)c(SCC#CCCl)n1 : provide TGI
Result string: 2.33 µM

Query string: Item COc1ccc(NC(=S)N/N=C/c2cccc(C)n2)cc1 : provide TGI
Result string: 18 µM

Query string: In one line, give reported TGI of the entry O=C(O)c1cc2ccccc2c(N=Nc2ccc(S(=O)(=O)O)cc2)c1O .
Result string: > 100 µM

Query string: Hello, please tell me recorded TGI for this one: O=C(NNC(=O)c1ccccc1O)c1ccccc1O
Result string: > 100 µM

Query string: Quick one: give measured TGI for CN(C)c1ccc(/C=C/c2nc3ccccc3s2)cc1
Result string: > 100 µM

Query string: Give a short answer stating reported TGI for O=C(OC1CC(n2cc(F)c(=O)[nH]c2=O)OC1CSC(=O)c1ccccc1)c1ccccc1 (stereo not given) .
Result string: > 100 µM

Query string: Give me measured TGI, please, for this compound: COc1ccc(OC)c(NC(=O)C2=C(C)NC(C)=C(C(=O)Nc3cc(OC)ccc3OC)C2c2ccco2)c1
Result string: > 100 µM

Further cases:
Query string: Identify measured TGI corresponding to CC[C@@]1(O)C[C@H](OC2CC(N(C)C)C(OC3CC(O)C(OC4CC(O)C(O)C(C)O4)C(C)O3)C(C)O2)c2c(cc3c(c2O)C(=O)c2c(O)ccc(O)c2C3=O)[C@H]1C(=O)OC (stereo not given in full)
Result string: 1.22 µM

====

system: SF-268 CNS; test: NCI tumour cell line growth inhibition, 48 h; in the data active = GI50 below about 0.43 µM; inactive = the rest
Your response should consist of one outcome taken from class 1 (active), class 0 (inactive)

Query string: Kindly provide the recorded test outcome for the following compound: CCCCNCC(O)c1cc2c(Cl)cc(Cl)cc2c2cc(C(F)(F)F)ccc12 (centres undefined)
Result string: class 0

Query string: Tell me the assay call for Nc1cc2c([nH]c[n+]2CC#CCCl)c(SCC#CCCl)n1 please.
Result string: class 0

Query string: Answer briefly: the call reported for COc1ccc2nc(NNC(=O)c3cnccn3)c3cccn3c2c1 in this assay.
Result string: class 1

Query string: Test call for this compound, please: O=S1CCN(Cc2ccc(-c3ccc4ncnc(Nc5ccc(OCc6cccc(F)c6)c(Cl)c5)c4c3)o2)CC1
Result string: class 0

Next:
Query string: Which result was noted for this compound in the test: CCCCCCCCc1ccc(OCCOCC[N+](C)(C)CC)cc1 (tested in a mixture with another compound)
Result string: class 0

Query string: What outcome does the record of this test show for NCCOc1ncccc1/C=C1\c2ccccc2-c2ccc(F)cc21 ?
Result string: class 0

Query string: Identify the outcome logged in this assay for the compound shown: C=Cc1ccccc1 (tested in a mixture with another compound)
Result string: class 0

Query string: Record request — test call for CCN1CCC(Oc2c(C#N)ncc3[nH]c4ncccc4c23)CC1
Result string: class 0

Query string: Recorded test outcome, item O=C1/C(=C/c2ccc(Cl)cc2)COc2ccc(O)cc21
Result string: class 0

Query string: Identify the outcome logged in this assay for the compound shown: Cn1ncc2c(Sc3ccc(Cl)cc3)ncnc21
Result string: class 0

====

test system: MDA-MB-231 breast; assay: NCI tumour cell line growth inhibition, 48 h
Please note: TRUE applies when TGI is 20 µM or greater, and FALSE applies otherwise.

Query string: Tell me whether TGI is at least 20 µM here: O=C(/C=C/c1cccc(Br)c1)c1ccc(Cl)cc1
Result string: TRUE

Query string: Reported TGI at or above 20 µM? CS(=O)(=O)Nc1cc(-c2ccc3ncnc(Nc4ccc5c(cnn5Cc5cccc(F)c5)c4)c3c2)cnc1Cl
Result string: FALSE

Query string: Threshold query (TGI >= 20 µM) on CC(=O)c1sc2c(c1OC(=O)c1ccc(Cl)cc1)c(=O)n(-c1ccccc1)c(=S)n2-c1ccccc1
Result string: FALSE

Query string: Hi team, for N#CCCOc1cccc(C2(N3CCCCC3)CCCCC2)c1 , is the recorded TGI at or above 20 µM?
Result string: TRUE

Query string: Record C=CCCC1CCCNC1=S (stereo not given) ; criterion: TGI no lower than 20 µM. Met?
Result string: TRUE

Query string: Given CCN(Cc1ccncc1)c1ccc(CO)c(Cl)c1 , state whether its TGI is at least 20 µM.
Result string: TRUE

Query string: Form field: TGI at least 20 µM? Entry: O=C(CCl)Nc1ccc2c(c1)C(=O)c1ccccc1C2=O
Result string: FALSE

Query string: Assess whether reported TGI for COCC(=O)Oc1cc(-c2ccc(C)cc2C)c(OC(=O)COC)c(-c2ccc(C)cc2C)c1 sits at 20 µM or higher.
Result string: TRUE

====

test system: IGROV1 ovarian; experiment: NCI tumour cell line growth inhibition, 48 h
readout: GI50

The cases that follow already have their GI50 on record.
Query string: Retrieve GI50 measured for Cc1cc2c([nH]1)CSc1cc(S(=O)(=O)c3ccccc3)c(=O)[nH]c1-2 and print it.
Result string: 820 nM

Query string: Look up GI50 of C=C(C)C(=O)Oc1ccc(N=Nc2ccc(C)cc2)ccc1=O and report it.
Result string: 2540 nM

Query string: Annotate the compound O=S1CCN(Cc2ccc(-c3ccc4ncnc(Nc5ccc(OCc6ccccc6)c(Cl)c5)c4c3)o2)CC1 with its measured GI50.
Result string: 561 nM

Query string: Given COc1cc(/C=N/Nc2ncnc3[nH]ncc23)ccc1O , respond with its GI50.
Result string: 8970 nM

Query string: Note GI50 for the compound shown: O=C1/C(=C/c2ccc(Cl)cc2)COc2ccc(O)cc21
Result string: 1670 nM

Continuing:
Query string: Look up and state reported GI50 for CC(C)(C)c1ccc(C(=O)Nc2sc3c(c2C#N)CCC(=O)C3)cc1
Result string: 657 nM

====

system: BT-549 breast; test: NCI tumour cell line growth inhibition, 48 h
readout: TGI (µM)
One number for each entry, in µM.

Query string: Recall and state the measured TGI for COc1ccc2nc3ccccc3c(NCCN(C)CCCl)c2c1 .
Result string: 3.24

Query string: Determine from records and report TGI for NCCOc1ncccc1/C=C1\c2ccccc2-c2ccc(F)cc21
Result string: 4.48

Query string: Report TGI for COCC(=O)Oc1cc(-c2ccc(C)cc2C)c(OC(=O)COC)c(-c2ccc(C)cc2C)c1
Result string: 22.9

Query string: Specify reported TGI for the compound shown: Cc1c(-c2ccccc2)c(C#N)c2nnn(-c3ccc([N+](=O)[O-])cc3)c(=O)n12
Result string: 69.9

Query string: Please report TGI for the following compound: Cn1cc(-c2nc3c(F)cc4[nH]ncc4c3c3c2CCCC3)c(C(F)(F)F)n1
Result string: 15.4

Query string: Tell me its TGI given CCCCCCCCc1cc[n+](CC(=O)c2ccc(Br)cc2)cc1 as the entry.
Result string: 5.52

Query string: Consider the compound COc1ccc2nc(NNC(=O)c3cnccn3)c3cccn3c2c1 . State its measured TGI.
Result string: 21

Query string: Name the recorded TGI of the compound listed here: COc1cc(C=O)cc(/C=N/N=C/c2ccccc2O)c1O
Result string: 52.6

State the recorded TGI for every item in the following list.
1. COC(=O)c1c(OC(C)=O)ccc2c1c1c(OC(C)=O)c3ccccc3c(OC(C)=O)c1n2C
2. OC1CCN(c2c3ccccc3nc3ccccc23)CC1
3. CCC/C=C/C=C/C(=O)OC1C(C)C2(O)C3C=C(C)C(=O)C3CC(COC(C)=O)=CC2C2C(C)(C)C12OC(=O)C(C)C (stereo not drawn)

Result string:
1: 57.1; 2: 41.1; 3: 35.1
